# Tested on: 276233-004-R-J1-PDC complex spheroid viability;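 note: spheroids exposed to drugs for seven days; 100% = DMSO vehicle control viability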
# assay overview: Anticancer human tumor 276233-004-R-J1-PDC patient-derived colon adenocarcinoma cell line growth inhibition [GQUAD]
# condition details: second compound 0.316 µM; first compound 0.1 µM; active compounds read low
readout type: viability, T/C (%)
The reply should contain only the number, in %.

// solved cases for viability, T/C follow
compound	viability, T/C / %
CC(=O)O[C@H]1C(=O)[C@@]2(C)[C@H]([C@H](OC(=O)c3ccccc3)[C@]3(O)C[C@H](OC(=O)[C@H](O)[C@@H](NC(=O)c4ccccc4)c4ccccc4)C(C)=C1C3(C)C)[C@]1(OC(C)=O)CO[C@@H]1C[C@@H]2O + CN(C)c1ccc(Nc2c3ccc(NC(=O)CCN4CCCC4)cc3nc3cc(NC(=O)CCN4CCCC4)ccc23)cc1	65.5
C=CCn1c(=O)c2cnc(Nc3ccc(N4CCN(C)CC4)cc3)nc2n1-c1cccc(C(C)(C)O)n1 + Cc1[nH]c2ccc(F)cc2c1-c1nc2c3cccnc3c3ncccc3c2[nH]1	58.4

Turning now to a further compound:
Query: Please tell me: viability, T/C of CC(C)n1c(=O)n(C)c2cnc3cc(F)c(-c4ccc(OCCCN5CCCCC5)nc4)cc3c21 + CN(C)c1ccc(Nc2c3ccc(NC(=O)CCN4CCCC4)cc3nc3cc(NC(=O)CCN4CCCC4)ccc23)cc1 , system 276233-004-R-J1-PDC complex spheroid viability?;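 note: spheroids exposed to drugs for seven days; 100% = DMSO vehicle control viability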
Result: 84.3
